These entries and their values trace back to the RNAGym collection of RNA variant scans (doi:10.7554/elife.80360).

B1: Hairpin Ribozyme (parent)
chain: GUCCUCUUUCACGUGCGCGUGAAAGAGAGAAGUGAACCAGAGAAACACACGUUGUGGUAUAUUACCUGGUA

Variants of: B1
METHOD_NOTES: self-cleavage, relative activity (ratio to wild type); higher = more cleavage; co-transcriptional
READOUT_KIND: self-cleavage
Answer with a bare number; do not write a unit.

Some variants with recorded self-cleavage:
INSERT INTO measurements (sequence_content, readout_kind, reported_result) VALUES
  ('GUCCUCUUUCACGGGCGCGUGAAAGAGAGAAGUGAACCAGAGAAACACACGUUGUGGUAUGUUACCUGGUA [U14G A61G]', 'self-cleavage', 0.0735),
  ('GUCCUCUUUCACGUGCGCGUGAAAGAGAGAAGUGAACAAGAGAAACACACGGUGUGGUAUAUUACCUGGUA [C38A U52G]', 'self-cleavage', 0.0831);

Request: What does the data say about its self-cleavage? Entry: GUCCGCUUUCACGUGCGCGUAAAAGAGAGAAGUGAACCAGAGAAACACACGUUGUGGUAUAUUACCUGGUA [U5G G21A]
Result: 0.17
